Just for reference, paper PMC10786891 is where these values come from.

Target: T1, EsCas13d, nuclease-dead (Eubacterium siraeum, UniProt B0MS50, R295A;H300A;R849A;H854A)
T1 sequence: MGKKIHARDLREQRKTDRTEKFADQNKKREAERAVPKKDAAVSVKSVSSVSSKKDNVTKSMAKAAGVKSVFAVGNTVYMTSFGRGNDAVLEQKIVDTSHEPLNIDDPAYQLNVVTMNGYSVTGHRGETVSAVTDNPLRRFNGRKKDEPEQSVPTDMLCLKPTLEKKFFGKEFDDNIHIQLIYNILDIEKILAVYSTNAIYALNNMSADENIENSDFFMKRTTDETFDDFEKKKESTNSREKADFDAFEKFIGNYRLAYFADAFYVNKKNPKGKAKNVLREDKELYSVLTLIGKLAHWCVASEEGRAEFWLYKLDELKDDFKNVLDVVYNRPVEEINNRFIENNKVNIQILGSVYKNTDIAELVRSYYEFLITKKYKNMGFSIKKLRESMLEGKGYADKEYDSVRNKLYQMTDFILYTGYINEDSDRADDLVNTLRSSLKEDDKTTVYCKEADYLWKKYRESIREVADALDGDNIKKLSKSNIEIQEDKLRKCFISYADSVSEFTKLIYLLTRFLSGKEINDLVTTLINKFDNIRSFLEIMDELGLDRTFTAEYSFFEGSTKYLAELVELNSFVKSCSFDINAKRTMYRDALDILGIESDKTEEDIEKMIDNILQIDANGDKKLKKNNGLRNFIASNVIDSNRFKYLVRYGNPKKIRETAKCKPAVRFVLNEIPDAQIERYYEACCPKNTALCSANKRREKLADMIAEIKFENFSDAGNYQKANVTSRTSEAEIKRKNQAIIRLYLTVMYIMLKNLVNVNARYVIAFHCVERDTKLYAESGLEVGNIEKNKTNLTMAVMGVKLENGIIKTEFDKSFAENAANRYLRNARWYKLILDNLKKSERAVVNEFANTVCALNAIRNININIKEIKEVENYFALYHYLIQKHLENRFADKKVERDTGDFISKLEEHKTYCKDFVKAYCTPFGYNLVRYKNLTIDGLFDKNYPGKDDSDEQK
Test: crRNA (strand 1, pre-loaded); Mg2+; 40 mM Tris-HCl pH 7.5, 150 mM NaCl, 6 mM MgCl2, 1 mM DTT, 0.1% Tween-20, 0.2 mg/ml BSA; 25 C; 10 min per concentration, then washed
Details: tags: His6-TwinStrep-SUMO cleaved; N-terminal SNAP kept (SNAP-Surface 488); label: 3' end held by stalled T7 RNA polymerase
Field: label. Allowed values: criterion met (Kd < 20 nM) or criterion not met (Kd >= 20 nM).

Known results for binders:
BINDER	LABEL_VALUE
target 1 insC 3' of 5,insU 3' of 1 (mixed) RNA 1: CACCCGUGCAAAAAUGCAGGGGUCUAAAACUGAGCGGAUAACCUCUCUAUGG RNA 2: GGGAAUGGAUCCACAUCUACGAAUUCGUACCAUAGAGAGGUUAUCCGCCUCAUCCGAGAUCGGAAGAGCACACGU	criterion met
target 2 MT 5'PFS GUA 3'PFS AUC (mixed) RNA 1: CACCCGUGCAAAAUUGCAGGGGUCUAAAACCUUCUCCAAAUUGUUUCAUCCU RNA 2: GGGAAUGGAUCCACAUCUACGAAUUCGUAAGGAUGAAACAAUUUGGAGAAGAUCAGAUCGGAAGAGCACACGU	criterion met
target 1 insG 3' of 18,insA 3' of 10 (mixed) RNA 1: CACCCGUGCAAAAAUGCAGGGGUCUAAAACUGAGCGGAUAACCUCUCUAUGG RNA 2: GGGAAUGGAUCCACAUCUACGAAUUCGUACCAUAGGAGAGGUUAAUCCGCUCACCGAGAUCGGAAGAGCACACGU	criterion not met
target 1 U3G,G13C (mixed) RNA 1: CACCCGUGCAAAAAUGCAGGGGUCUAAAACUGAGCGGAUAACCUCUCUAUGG RNA 2: GGGAAUGGAUCCACAUCUACGAAUUCGUACCAUAGAGACGUUAUCCGCGCACCGAGAUCGGAAGAGCACACGU	criterion not met
target 2 MT 5'PFS AAU 3'PFS UUA (mixed) RNA 1: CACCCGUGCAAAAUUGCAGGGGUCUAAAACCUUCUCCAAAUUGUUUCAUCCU RNA 2: GGGAAUGGAUCCACAUCUACGAAUUCAAUAGGAUGAAACAAUUUGGAGAAGUUAAGAUCGGAAGAGCACACGU	criterion met
target 1 insC 3' of 11,insU 3' of 9 (mixed) RNA 1: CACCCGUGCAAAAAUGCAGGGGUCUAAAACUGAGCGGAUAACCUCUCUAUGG RNA 2: GGGAAUGGAUCCACAUCUACGAAUUCGUACCAUAGAGAGGUCUAUUCCGCUCACCGAGAUCGGAAGAGCACACGU	criterion not met
target 1 insA 3' of 6,insU 3' of 2 (mixed) RNA 1: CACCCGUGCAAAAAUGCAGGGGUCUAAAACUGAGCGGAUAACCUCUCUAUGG RNA 2: GGGAAUGGAUCCACAUCUACGAAUUCGUACCAUAGAGAGGUUAUCCAGCUCUACCGAGAUCGGAAGAGCACACGU	criterion not met
target 2 MT 5'PFS AUA 3'PFS AGA (mixed) RNA 1: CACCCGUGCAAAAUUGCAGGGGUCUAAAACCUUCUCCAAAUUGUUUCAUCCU RNA 2: GGGAAUGGAUCCACAUCUACGAAUUCAUAAGGAUGAAACAAUUUGGAGAAGAGAAGAUCGGAAGAGCACACGU	criterion met

Kd under 20 nM? Item: target 3 insC 3' of 21,insG 3' of 5 (mixed) RNA 1: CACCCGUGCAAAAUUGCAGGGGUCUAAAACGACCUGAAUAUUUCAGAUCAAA RNA 2: GGGAAUGGAUCCACAUCUACGAAUUCGUUUUCUGAUCUGAAAUAUUCAGGGUCUGCAGAUCGGAAGAGCACACGU
criterion not met

Item target 1 A1C,C7U (mixed) RNA 1: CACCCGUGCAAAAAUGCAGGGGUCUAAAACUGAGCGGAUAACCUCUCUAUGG RNA 2: GGGAAUGGAUCCACAUCUACGAAUUCGUACCAUAGAGAGGUUAUUCGCUCCCCGAGAUCGGAAGAGCACACGU : Kd beneath 20 nM, strictly?
criterion met

In plain terms, does target 1 insC 3' of 20,insG 3' of 6 (mixed) RNA 1: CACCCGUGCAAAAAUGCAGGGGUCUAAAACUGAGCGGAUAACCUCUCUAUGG RNA 2: GGGAAUGGAUCCACAUCUACGAAUUCGUACCACUAGAGAGGUUAUCCGGCUCACCGAGAUCGGAAGAGCACACGU come in under 20 nM for Kd?
criterion met

Does the reported Kd of target 2 MT 5'PFS UCU 3'PFS ACU (mixed) RNA 1: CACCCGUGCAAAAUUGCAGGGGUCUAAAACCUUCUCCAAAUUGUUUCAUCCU RNA 2: GGGAAUGGAUCCACAUCUACGAAUUCUCUAGGAUGAAACAAUUUGGAGAAGACUAGAUCGGAAGAGCACACGU stay below 20 nM?
criterion met
